FYI, the data here is from ChEMBL document CHEMBL4364271.

# test: Agonist activity at ComD1 receptor in Streptococcus pneumoniae D39 harboring pcomX/lacZ reporter gene incubated for 30 mins by ONPG based beta-galactosidase assay
property: EC50 (nM)
Please state the figure in nM; there is no need to write the unit.

// EC50 value for `H-EMRLSKFFRDFILQR-OH` : 8.1

###

# Test system: Streptococcus pneumoniae TIGR4
# test: Agonist activity at ComD2 receptor in Streptococcus pneumoniae TIGR4 harboring pcomX/lacZ reporter gene at 10 uM incubated for 30 mins by ONPG based beta-galactosidase assay relative to native CSP2
Non-standard residues stand in square brackets, D forms with d. Residues, ends and D or L forms follow the SMILES beside them. NMeR = CN[C@@H](CCCNC(=N)N)C(=O)O; NMeI = CC[C@H](C)[C@H](NC)C(=O)O
Hi there, I'd appreciate the recorded Activity for every entry that follows.

Sample CC[C@H](C)[C@H](NC(=O)[C@H](CCCNC(=N)N)NC(=O)[C@H](CCSC)NC(=O)[C@@H](N)CCC(=O)O)C(=O)N[C@@H](CO)C(=O)N(C)[C@@H](CCCNC(=N)N)C(=O)N[C@H](C(=O)N[C@H](C(=O)N[C@@H](CC(C)C)C(=O)N[C@@H](CC(=O)O)C(=O)N[C@@H](Cc1ccccc1)C(=O)N[C@@H](CC(C)C)C(=O)N[C@@H](Cc1ccccc1)C(=O)O)[C@@H](C)CC)[C@@H](C)CC (H-EMRIS[NMeR]IILDFLF-OH) ; Activity observed: > 75%

Measured Activity of CC[C@H](C)[C@H](NC(=O)[C@H](CCCNC(=N)N)NC(=O)[C@H](CO)NC(=O)[C@H]([C@@H](C)CC)N(C)C(=O)[C@H](CCCNC(=N)N)NC(=O)[C@H](CCSC)NC(=O)[C@@H](N)CCC(=O)O)C(=O)N[C@H](C(=O)N[C@@H](CC(C)C)C(=O)N[C@@H](CC(=O)O)C(=O)N[C@@H](Cc1ccccc1)C(=O)N[C@@H](CC(C)C)C(=O)N[C@@H](Cc1ccccc1)C(=O)O)[C@@H](C)CC (H-EMR[NMeI]SRIILDFLF-OH) : > 75%
